# Target: FGFR4 (h) (Homo sapiens, UniProt P22455)
# Sequence (P22455 22-802): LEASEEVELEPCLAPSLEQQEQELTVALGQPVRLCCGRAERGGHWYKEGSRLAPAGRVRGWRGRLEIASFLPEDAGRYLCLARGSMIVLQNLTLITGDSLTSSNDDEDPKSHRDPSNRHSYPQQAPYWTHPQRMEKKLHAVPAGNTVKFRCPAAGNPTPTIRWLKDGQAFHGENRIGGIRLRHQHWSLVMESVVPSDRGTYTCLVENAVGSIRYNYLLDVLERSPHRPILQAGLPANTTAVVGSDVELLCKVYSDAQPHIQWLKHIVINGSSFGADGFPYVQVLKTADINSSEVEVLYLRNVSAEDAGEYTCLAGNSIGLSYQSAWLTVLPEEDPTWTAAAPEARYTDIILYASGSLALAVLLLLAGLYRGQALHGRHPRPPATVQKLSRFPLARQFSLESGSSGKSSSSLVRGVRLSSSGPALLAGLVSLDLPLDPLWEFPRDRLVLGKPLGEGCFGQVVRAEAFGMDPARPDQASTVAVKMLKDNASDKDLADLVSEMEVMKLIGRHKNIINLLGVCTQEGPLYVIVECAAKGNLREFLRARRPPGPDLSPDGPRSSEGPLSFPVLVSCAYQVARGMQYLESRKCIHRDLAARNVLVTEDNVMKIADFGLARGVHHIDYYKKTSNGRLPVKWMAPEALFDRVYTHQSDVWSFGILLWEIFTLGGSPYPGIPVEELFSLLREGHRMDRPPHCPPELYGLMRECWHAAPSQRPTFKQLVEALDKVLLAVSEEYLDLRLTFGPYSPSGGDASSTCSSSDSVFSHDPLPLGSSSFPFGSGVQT
# Method description: FGFR4 (enzymatic assay), TR-FRET
# Type: biochemical
# Condition label: read-out: FGFR 4 pIC50 (converted)
# Description: In a final reaction volume of 30 μL, FGFR4 (h) (60 ng/ml) was incubated with 50 mM HEPES pH 7.5, 6 mM MnCl2, 1 mM DTT, 0.1 mM Na3VO4, 0.01% Triton-X-100, 500 nM Btn-Flt3 and 5 μM ATP in the presence of compound (1% DMSO final). […] Time-Resolved Fluorescence Resonance Energy Transfer (TR-FRET) signal (ex340 nm. Em 620 nm, em 655 nm) was measured afterwards and results are expressed in RFU (Relative Fluorescence Units).
Endpoint name: IC50 (nM)

Example results:
{"Record smiles": "CNc1ccc(-c2cnc3ccc(N(CCCNCC(F)(F)F)c4cc(OC)cc(OC)c4)cc3n2)cn1", "Target": "FGFR4 (h) (Homo sapiens, UniProt P22455)", "Endpoint name": "IC50", "Recorded number": 87.1}
{"Record smiles": "COc1cc(OC)cc(N(CC2CC2)c2ccc3ncc(-n4ccc(C)n4)nc3c2)c1", "Target": "FGFR4 (h) (Homo sapiens, UniProt P22455)", "Endpoint name": "IC50", "Recorded number": 776}

[I] COc1cc(OC)cc(N(CCCO)c2ccc3ncc(-c4ccnc(C(=O)NCCCCCN)c4)nc3c2)c1
[II] COc1cc(OC)cc(N(CCCO)c2ccc3ncc(-c4ccnc(C(=O)N5CCOCC5)c4)nc3c2)c1
Ask | Could you tell me which of I and II has the lower IC50 reading? State your choice using its label.
Reply | II

###

# Target: FGFR2 (h) (Homo sapiens, UniProt P21802)
# Sequence (P21802 22-821): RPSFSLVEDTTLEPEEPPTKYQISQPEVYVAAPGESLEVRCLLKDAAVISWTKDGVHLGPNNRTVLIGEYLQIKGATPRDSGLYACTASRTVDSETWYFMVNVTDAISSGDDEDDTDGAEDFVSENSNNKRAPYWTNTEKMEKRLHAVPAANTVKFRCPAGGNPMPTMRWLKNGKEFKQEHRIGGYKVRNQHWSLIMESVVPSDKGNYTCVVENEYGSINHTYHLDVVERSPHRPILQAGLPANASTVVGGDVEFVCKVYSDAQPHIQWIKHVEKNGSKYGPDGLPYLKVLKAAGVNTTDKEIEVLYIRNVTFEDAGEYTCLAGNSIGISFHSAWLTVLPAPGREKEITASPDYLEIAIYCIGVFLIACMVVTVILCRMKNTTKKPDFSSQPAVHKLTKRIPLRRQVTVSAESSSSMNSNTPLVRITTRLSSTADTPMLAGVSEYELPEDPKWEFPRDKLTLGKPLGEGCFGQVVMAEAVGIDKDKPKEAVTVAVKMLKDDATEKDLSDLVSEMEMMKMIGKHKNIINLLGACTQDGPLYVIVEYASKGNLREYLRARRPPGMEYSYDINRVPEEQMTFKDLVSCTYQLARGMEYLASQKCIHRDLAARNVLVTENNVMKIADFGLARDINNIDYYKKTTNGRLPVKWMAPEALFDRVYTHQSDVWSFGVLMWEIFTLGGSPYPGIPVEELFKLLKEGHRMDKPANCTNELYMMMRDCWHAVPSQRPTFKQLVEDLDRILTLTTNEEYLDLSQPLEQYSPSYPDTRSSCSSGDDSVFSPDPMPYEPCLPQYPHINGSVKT
# Method description: FGFR2 (enzymatic assay), TR-FRET
# Type: biochemical
# Condition label: read-out: FGFR 2 pIC50 (converted)
Endpoint name: IC50 (µM)

{"Molecule": "COc1cc(OC)cc(N(CCO)c2ccc3ncc(-c4ccc(N5CCOCC5)nc4)nc3c2)c1 [Compound 19]", "Recorded number": 0.0107}
{"Molecule": "COCCN(c1cc(OC)cc(OC)c1)c1ccc2ncc(-c3ccn(C)c3)nc2c1 [Compound 6]", "Recorded number": 0.012}
{"Molecule": "COc1cc(OC)cc(N(CCNC(C)C)c2ccc3ncc(-c4ccc(N5CCN(C)CC5)nc4)nc3c2)c1 [Compound 170]", "Recorded number": 0.00398}
{"Molecule": "COc1cc(OC)cc(N(CC2CC2)c2ccc3ncc(-n4cnc(C)c4)nc3c2)c1 [Compound 30]", "Recorded number": 0.0676}
{"Molecule": "COc1cc(OC)cc(N(CCO)c2ccc3ncc(C4CCN(C(=O)OC(C)(C)C)CC4)nc3c2)c1 [Compound 185]", "Recorded number": 0.214}
{"Molecule": "COc1cc(OC)cc(N(CC2CC2)c2ccc3ncc(N4CCOCC4)nc3c2)c1 [Compound 63]", "Recorded number": 0.741}
{"Molecule": "COc1cc(OC)cc(N(CCO)c2ccc3ncc(-c4ccncc4)nc3c2)c1 [Compound 11]", "Recorded number": 0.0141}
{"Molecule": "COc1cc(OC)cc(N(CCCNCCCO)c2ccc3ncc(-c4ccnc(C(=O)NCCCCN)c4)nc3c2)c1 [Compound 132]", "Recorded number": 0.00871}

[a] COc1cc(OC)cc(N(CC2CC2)c2ccc3ncc(N4CCN(CCO)CC4)nc3c2)c1 [Compound 49]
[b] CNC(=O)c1cc(-c2cnc3ccc(N(CCNC(C)C)c4cc(OC)cc(OC)c4)cc3n2)ccn1 [Compound 14]
[c] COc1cc(OC)cc(N(CCCNCC(F)(F)F)c2ccc3ncc(-c4ccn(C)c4)nc3c2)c1 [Compound 5]
[d] COc1cc(OC)cc(N(CC2CC2)c2ccc3ncc(-c4cnco4)nc3c2)c1 [Compound 55]
[e] COc1cc(OC)cc(N(CCCO)c2ccc3ncc(-c4ccnc(C(=O)NCCCN)c4)nc3c2)c1 [Compound 33]
Ask | Given 5 molecules, produce a descending ranking by IC50. Field: ranking. Enter the labels in the order requested.
Reply | a, d, e, c, b
(a: 0.398 µM, d: 0.0479 µM, e: 0.0229 µM, c: 0.0151 µM, b: 0.00562 µM)

[I] COc1cc(OC)cc(N(CCNC(C)C)c2ccc3ncc(-n4cnc(COC(C)=O)c4)nc3c2)c1 [Compound 167]
[II] COc1cc(OC)cc(N(CCO)c2ccc3ncc(-c4ccccc4CCO)nc3c2)c1 [Compound 151]
Ask | Could you tell me which of I and II has the lower IC50 reading? State your choice using its label.
Reply | I
(I: 0.00776 µM, II: 0.513 µM)

###

Where a name gives a salt, the structure may show the parent alone.
Endpoint name: melting point (°C)

[a] COc1cc(OC)cc(N(CC2CC2)c2ccc3ncc(-n4ccnc4C)nc3c2)c1 (as salt: HCl)
[b] COc1cc(OC)cc(N(CC2CC2)c2ccc3ncc(-c4nccs4)nc3c2)c1
Ask | Could you tell me which of a and b has the lower melting point reading? State your choice using its label.
Reply | b
(b: 148 °C, a: 223 °C)

###

# Target: Ba/F3-KDR-transfected cells (Homo sapiens, UniProt P35968)
# Sequence (P35968 whole entry, change not shown): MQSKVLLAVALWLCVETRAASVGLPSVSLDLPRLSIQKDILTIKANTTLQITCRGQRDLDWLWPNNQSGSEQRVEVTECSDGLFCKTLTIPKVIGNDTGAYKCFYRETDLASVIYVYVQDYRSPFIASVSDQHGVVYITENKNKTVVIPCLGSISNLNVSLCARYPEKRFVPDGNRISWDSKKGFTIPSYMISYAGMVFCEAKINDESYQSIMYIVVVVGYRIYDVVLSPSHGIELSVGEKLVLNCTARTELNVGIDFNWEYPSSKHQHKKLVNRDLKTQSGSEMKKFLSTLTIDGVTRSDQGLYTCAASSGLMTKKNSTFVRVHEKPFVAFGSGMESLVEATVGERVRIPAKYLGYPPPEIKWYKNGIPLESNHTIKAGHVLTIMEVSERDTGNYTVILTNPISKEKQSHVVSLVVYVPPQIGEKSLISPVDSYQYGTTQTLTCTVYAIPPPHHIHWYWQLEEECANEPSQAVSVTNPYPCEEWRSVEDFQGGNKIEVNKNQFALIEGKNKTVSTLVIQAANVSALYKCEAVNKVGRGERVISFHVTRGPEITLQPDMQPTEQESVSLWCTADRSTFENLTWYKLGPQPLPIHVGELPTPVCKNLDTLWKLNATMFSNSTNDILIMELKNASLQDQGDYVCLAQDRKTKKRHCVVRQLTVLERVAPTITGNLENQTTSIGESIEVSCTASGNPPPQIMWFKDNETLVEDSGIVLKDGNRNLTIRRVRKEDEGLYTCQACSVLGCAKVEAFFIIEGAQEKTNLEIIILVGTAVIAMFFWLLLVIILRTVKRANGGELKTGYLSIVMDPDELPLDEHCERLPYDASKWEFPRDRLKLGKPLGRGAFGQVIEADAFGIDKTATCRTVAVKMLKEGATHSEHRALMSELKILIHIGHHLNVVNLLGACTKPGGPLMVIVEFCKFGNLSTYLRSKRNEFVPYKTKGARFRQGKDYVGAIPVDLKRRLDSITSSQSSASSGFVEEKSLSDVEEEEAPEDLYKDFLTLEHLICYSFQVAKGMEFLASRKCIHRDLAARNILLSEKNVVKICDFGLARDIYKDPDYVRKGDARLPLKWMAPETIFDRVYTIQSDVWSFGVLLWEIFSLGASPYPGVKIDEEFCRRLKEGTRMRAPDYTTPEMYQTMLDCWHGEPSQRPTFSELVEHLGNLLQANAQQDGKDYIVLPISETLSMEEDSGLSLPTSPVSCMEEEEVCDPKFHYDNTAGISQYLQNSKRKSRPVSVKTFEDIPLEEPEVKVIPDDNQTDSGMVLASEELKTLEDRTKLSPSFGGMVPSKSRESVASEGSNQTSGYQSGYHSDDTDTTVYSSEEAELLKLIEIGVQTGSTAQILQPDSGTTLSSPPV
# Method description: Ba/F3-KDR (minus IL3) cellular proliferation assay, Alamar Blue
# Type: cell-based
# Condition label: minus IL3
Endpoint name: BAF3-KDR (MIN IL3) 384 well pIC50

Example results:
{"Molecule": "COc1cc(OC)cc(N(CC#Cc2ncccn2)c2ccc3ncc(-c4cccnc4)nc3c2)c1", "BAF3-KDR (MIN IL3) 384 well pIC50": "<5"}
{"Molecule": "COCCCN(c1cc(OC)cc(OC)c1)c1ccc2ncc(-c3ccn(C)c3)nc2c1", "BAF3-KDR (MIN IL3) 384 well pIC50": 5.07}
{"Molecule": "CCOC(=O)c1ncn(-c2cnc3ccc(N(CC4CC4)c4cc(OC)cc(OC)c4)cc3n2)c1C", "BAF3-KDR (MIN IL3) 384 well pIC50": "<5"}
{"Molecule": "COc1cc(OC)cc(N(CC2CC2)c2ccc3ncc(C(=O)NCc4ccc(F)cc4)nc3c2)c1", "BAF3-KDR (MIN IL3) 384 well pIC50": "<5"}
{"Molecule": "COCC(O)CN(c1cc(OC)cc(OC)c1)c1ccc2ncc(-c3cccnc3)nc2c1 (single isomer, unassigned) [Compound 46]", "BAF3-KDR (MIN IL3) 384 well pIC50": "<5"}
{"Molecule": "COc1cc(OC)cc(N(CC2CC2)c2ccc3ncc(-n4nccc4C)nc3c2)c1", "BAF3-KDR (MIN IL3) 384 well pIC50": "<5"}
{"Molecule": "COc1cc(OC)cc(N(CCCO)c2ccc3ncc(-c4cccnc4)nc3c2)c1", "BAF3-KDR (MIN IL3) 384 well pIC50": "<5"}
{"Molecule": "COc1cc(OC)cc(N(CCCO)c2ccc3ncc(-c4ccc(N(C)C(=O)OC(C)(C)C)nc4)nc3c2)c1", "BAF3-KDR (MIN IL3) 384 well pIC50": "<5"}

Ask | Field request: BAF3-KDR (MIN IL3) 384 well pIC50 | item: `COc1cc(OC)cc(N(CCO)c2ccc3ncc(-c4ccncc4)nc3c2)c1`
Reply | 5.1

Ask | Field request: BAF3-KDR (MIN IL3) 384 well pIC50 | item: `COc1cc(OC)cc(N(CC2CC2)c2ccc3ncc(C(=O)N4CCC4)nc3c2)c1`
Reply | <5

###

# Target: Ba/F3-FGFR3-transfected cells (Homo sapiens)
# Sequence (P22607 whole entry, change not shown): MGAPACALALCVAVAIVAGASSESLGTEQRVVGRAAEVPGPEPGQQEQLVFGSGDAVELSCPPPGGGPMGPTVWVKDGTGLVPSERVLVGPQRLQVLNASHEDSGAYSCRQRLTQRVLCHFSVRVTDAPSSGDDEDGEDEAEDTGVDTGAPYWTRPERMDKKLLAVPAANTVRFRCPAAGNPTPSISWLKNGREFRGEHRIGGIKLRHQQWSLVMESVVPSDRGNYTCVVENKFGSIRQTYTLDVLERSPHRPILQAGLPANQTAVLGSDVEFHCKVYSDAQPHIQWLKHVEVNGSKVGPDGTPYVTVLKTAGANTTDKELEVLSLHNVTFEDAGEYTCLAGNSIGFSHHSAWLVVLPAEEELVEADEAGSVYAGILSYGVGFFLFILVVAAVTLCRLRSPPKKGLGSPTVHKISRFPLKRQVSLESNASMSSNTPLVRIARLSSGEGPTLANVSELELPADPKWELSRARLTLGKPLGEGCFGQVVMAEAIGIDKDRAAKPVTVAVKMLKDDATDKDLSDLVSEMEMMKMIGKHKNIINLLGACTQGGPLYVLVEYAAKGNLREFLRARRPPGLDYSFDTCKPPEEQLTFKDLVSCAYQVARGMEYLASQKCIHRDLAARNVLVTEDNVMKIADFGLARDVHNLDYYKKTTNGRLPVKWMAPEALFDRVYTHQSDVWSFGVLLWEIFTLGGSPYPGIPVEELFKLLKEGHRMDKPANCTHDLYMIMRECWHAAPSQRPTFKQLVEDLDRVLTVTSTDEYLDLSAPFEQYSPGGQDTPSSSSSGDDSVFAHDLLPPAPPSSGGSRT
# Method description: Ba/F3-FGFR3 (minus IL3) cellular proliferation assay, Alamar Blue
# Type: cell-based
# Condition label: minus IL3, 96 well
Endpoint name: BAF3-FGFR 3 (MIN IL3) 96 well pIC50

{"Compound": "COc1cc(OC)cc(N(CC2CC2)c2ccc3ncc(-c4nnc(C)o4)nc3c2)c1 [Compound 85]", "BAF3-FGFR 3 (MIN IL3) 96 well pIC50": 5.06}
{"Compound": "COc1cc(OC)cc(N(CC2CC2)c2ccc3ncc(-c4ccc5[nH]ccc5c4)nc3c2)c1 [Compound 86]", "BAF3-FGFR 3 (MIN IL3) 96 well pIC50": 5.4}
{"Compound": "COc1cc(OC)cc(N(CC2CC2)c2ccc3ncc(N4CCN(C)CC4)nc3c2)c1 [Compound 64]", "BAF3-FGFR 3 (MIN IL3) 96 well pIC50": 5.02}
{"Compound": "COc1cc(OC)cc(N(CC2CC2)c2ccc3ncc(-c4c[nH]cn4)nc3c2)c1 [Compound 39]", "BAF3-FGFR 3 (MIN IL3) 96 well pIC50": 5.51}
{"Compound": "COc1cc(OC)cc(N(CC2CC2)c2ccc3ncc(-n4cnc(C)c4)nc3c2)c1 [Compound 30]", "BAF3-FGFR 3 (MIN IL3) 96 well pIC50": 5.94}
{"Compound": "COc1cc(OC)cc(N(CC2CC2)c2ccc3ncc(-c4ccn[nH]4)nc3c2)c1 [Compound 58]", "BAF3-FGFR 3 (MIN IL3) 96 well pIC50": 5.56}
{"Compound": "COc1cc(OC)cc(N(CC2CC2)c2ccc3ncc(N4CCN(CCO)CC4)nc3c2)c1 [Compound 49]", "BAF3-FGFR 3 (MIN IL3) 96 well pIC50": 5.5}
